Measured values drawn from paper PMC9738727 for this set.

# System: S. aureus TISTR 517
# Assay procedure: microbe, parasite or virus in culture
# Type: cell-based, Staphylococcus aureus
# Condition description: TISTR 517, 24 h
Ends that are not written are not given here.
Quick reference for MBC among some sequences
Readout name: MBC (mg/L)

[[record]]
sequence_data = "VVVNVLVKVLPPPVV [Peptide P1]"
target_or_system = "S. aureus TISTR 517"
unit_label = "mg/L"
value_observed = 4

[[record]]
sequence_data = "VVMNLLVKVLKYVV [Peptide P2]"
target_or_system = "S. aureus TISTR 517"
unit_label = "mg/L"
value_observed = 16

[[record]]
sequence_data = "VVLNLVVKLLKYAK [Peptide P5]"
target_or_system = "S. aureus TISTR 517"
unit_label = "mg/L"
value_observed = 32

[[record]]
sequence_data = "VVLNLLVKVLKYGK [Peptide P3]"
target_or_system = "S. aureus TISTR 517"
unit_label = "mg/L"
value_observed = 4

[[record]]
sequence_data = "VVVNLLVKVLKYAK [Peptide P4]"
target_or_system = "S. aureus TISTR 517"
unit_label = "mg/L"
value_observed = 8

